molecular target: Acetylcholinesterase (Homo sapiens)
Sequence (P22303 whole entry): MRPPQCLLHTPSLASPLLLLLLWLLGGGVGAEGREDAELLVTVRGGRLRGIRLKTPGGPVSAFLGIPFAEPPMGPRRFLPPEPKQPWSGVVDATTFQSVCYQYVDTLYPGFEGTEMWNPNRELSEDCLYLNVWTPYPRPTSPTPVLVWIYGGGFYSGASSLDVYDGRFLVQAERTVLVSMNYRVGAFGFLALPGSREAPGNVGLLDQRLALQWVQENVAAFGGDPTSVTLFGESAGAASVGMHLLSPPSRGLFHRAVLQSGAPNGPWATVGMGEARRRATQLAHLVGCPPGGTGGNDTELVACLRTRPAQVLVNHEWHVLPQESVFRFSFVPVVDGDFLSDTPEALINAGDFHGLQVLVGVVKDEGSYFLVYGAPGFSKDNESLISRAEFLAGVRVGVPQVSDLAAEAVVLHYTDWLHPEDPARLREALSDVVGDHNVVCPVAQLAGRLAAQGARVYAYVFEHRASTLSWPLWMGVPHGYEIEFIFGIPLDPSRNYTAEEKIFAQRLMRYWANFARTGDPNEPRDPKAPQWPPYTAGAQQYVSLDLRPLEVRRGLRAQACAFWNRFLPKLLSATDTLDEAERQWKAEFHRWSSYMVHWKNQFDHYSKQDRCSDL
// boundary case: IC50 equal to 20 µM maps to false (0); strictly smaller maps to true (1)

Asked: For this compound, is IC50 lower than 20 µM? CCCCOC(=O)CC[C@@H](C)[C@H]1CC[C@@]2(C)C3=C(C(=O)C[C@]12C)[C@@]1(C)CCC(=O)C(C)(C)[C@@H]1C[C@@H]3O
Given back: true (1)

Asked: For this compound, is IC50 lower than 20 µM? C/C(=C\CC[C@@H](C)[C@H]1CC[C@@]2(C)C3=CC[C@H]4C(C)(C)[C@@H](O)CC[C@]4(C)C3=CC[C@]12C)CO [GANODEROL B]
Given back: false (0)

Asked: For this compound, is IC50 lower than 20 µM? CC(CC(=O)C[C@@H](C)[C@H]1C[C@H](O)[C@@]2(C)C3=C(C(=O)C[C@]12C)[C@@]1(C)CCC(=O)C(C)(C)[C@@H]1CC3)C(=O)O (some centres not stated) [GANOLUCIDIC ACID A]
Given back: false (0)

Asked: For this compound, is IC50 lower than 20 µM? C[C@H](CC[C@@H](O)C(C)(C)O)[C@H]1CC[C@@]2(C)C3=CC[C@H]4C(C)(C)C(=O)CC[C@]4(C)C3=CC[C@]12C [GANODERMANONDIOL]
Given back: false (0)

Asked: For this compound, is IC50 lower than 20 µM? CCCCOC(=O)CC[C@@H](C)[C@H]1CC[C@@]2(C)C3=C(C(=O)C[C@]12C)[C@@]1(C)CC[C@H](O)C(C)(C)[C@@H]1C[C@@H]3O
Given back: true (1)

Asked: For this compound, is IC50 lower than 20 µM? C/C(=C\CC[C@@H](C)[C@H]1CC[C@@]2(C)C3=CC[C@H]4C(C)(C)[C@@H](O)CC[C@]4(C)C3=CC[C@]12C)C(=O)O [GANODERIC ACID Y]
Given back: false (0)

Asked: For this compound, is IC50 lower than 20 µM? C[C@H](CCC=C(CO)CO)[C@H]1CC[C@@]2(C)C3=CC[C@H]4C(C)(C)C(=O)CC[C@]4(C)C3=CC[C@]12C [GANODERIOL F]
Given back: false (0)
